This collection of values is drawn from ChEMBL document CHEMBL1157620.

Reported pIC50 values for a set of molecules
target: Cytochrome P450 2D6 (Homo sapiens, UniProt P10635)
Sequence (P10635 whole entry): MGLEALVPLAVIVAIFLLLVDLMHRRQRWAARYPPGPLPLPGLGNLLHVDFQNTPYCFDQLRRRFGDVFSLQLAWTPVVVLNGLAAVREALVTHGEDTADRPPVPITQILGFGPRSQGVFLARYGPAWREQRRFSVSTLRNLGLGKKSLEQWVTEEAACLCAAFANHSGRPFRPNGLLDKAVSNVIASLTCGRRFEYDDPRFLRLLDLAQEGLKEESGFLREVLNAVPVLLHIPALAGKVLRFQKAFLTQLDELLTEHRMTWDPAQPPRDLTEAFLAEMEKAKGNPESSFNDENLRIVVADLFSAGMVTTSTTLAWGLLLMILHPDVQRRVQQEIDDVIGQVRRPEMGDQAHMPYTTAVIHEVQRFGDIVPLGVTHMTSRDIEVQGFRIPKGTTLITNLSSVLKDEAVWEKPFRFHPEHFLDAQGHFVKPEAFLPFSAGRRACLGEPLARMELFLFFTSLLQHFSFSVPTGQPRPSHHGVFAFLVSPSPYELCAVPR
Just so you know, pIC50 here is -log10 of the concentration in molar units; reply with that number alone.

CCOC[C@H]1[C@@H]2CNC[C@@]21c1ccc(Cl)c(Cl)c1 (relative stereo): 5.40

Request: Please look up its pIC50: FC(F)(F)COC[C@]1(c2ccc(Cl)c(Cl)c2)[C@@H]2CNC[C@@H]21
Result: 6.52

----------
target: Sodium-dependent serotonin transporter (Mus musculus, UniProt Q60857)
Sequence (Q60857 whole entry): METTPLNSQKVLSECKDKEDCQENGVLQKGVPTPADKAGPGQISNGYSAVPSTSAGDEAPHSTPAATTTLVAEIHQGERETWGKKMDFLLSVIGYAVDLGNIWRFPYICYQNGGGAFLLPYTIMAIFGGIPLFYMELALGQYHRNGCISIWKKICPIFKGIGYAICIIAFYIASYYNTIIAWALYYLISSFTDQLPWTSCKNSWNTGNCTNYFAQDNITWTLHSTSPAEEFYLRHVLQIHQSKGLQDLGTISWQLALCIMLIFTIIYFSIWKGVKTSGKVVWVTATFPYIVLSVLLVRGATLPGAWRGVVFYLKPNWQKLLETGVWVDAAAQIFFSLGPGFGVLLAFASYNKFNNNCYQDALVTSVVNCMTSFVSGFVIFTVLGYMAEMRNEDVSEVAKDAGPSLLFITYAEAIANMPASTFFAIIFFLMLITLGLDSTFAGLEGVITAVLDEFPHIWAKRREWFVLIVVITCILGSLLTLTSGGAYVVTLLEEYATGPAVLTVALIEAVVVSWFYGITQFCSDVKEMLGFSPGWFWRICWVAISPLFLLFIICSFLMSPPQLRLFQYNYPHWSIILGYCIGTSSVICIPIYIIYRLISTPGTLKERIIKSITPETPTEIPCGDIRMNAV
Reported property: Ki (nM)
API: value field is a number in nM; no unit string.

Request: Please look up its Ki: CCOC[C@H]1[C@@H]2CNC[C@@]21c1ccc(Cl)c(Cl)c1
Result: 0.851
